Reference for the values: paper PMC12040169

Below, each entry is listed with its recorded viability at 28.5 h, 10 µM.
test: in vitro; details: human, hela cells, % viability
Write it as a number; the unit % goes unstated.

Dear colleague, I am looking for the recorded viability at 28.5 h, 10 µM of the following molecule: CC(=O)OC1CCN(C(=O)c2cccc(C#N)c2)CC1
93.3

Now consider CCOC(=O)COc1ccc(S(=O)(=O)N2CCN(Cc3ccc4c(c3)OCO4)CC2)cc1 .
101

Now consider CN(C)CCCNC(=O)c1cc(C(C)(C)C)nn1Cc1ccc(Cl)cc1Cl .
102

Now consider O=S(=O)(NC1c2cccc3cccc(c23)C1Sc1ccccn1)c1ccc(Cl)cc1 (centres unmarked) .
95.1

Now consider Cc1noc(C)c1S(=O)(=O)Nc1nc(-c2cccnc2)cs1 .
91.5

Now consider N#Cc1c[nH]nc1NS(=O)(=O)c1ccc(F)cc1 .
106

Now consider O=C(c1[nH]c2ccccc2c1NS(=O)(=O)/C=C/c1ccccc1)N1CCOCC1 .
93.1

Now consider Cc1ccc(Nc2ncc(C(=O)NCCCN3CCN(c4cccc(Cl)c4)CC3)c3ccccc23)cc1Cl .
90.1

Now consider Cc1ccc(S(=O)(=O)N/N=C(/c2ccccc2)c2ccc(OCC(C)C)cc2)cc1 .
87.8

Now consider CN(C)C(=O)CN1C(=O)[C@H]2CCCN2C(=O)c2ccccc21 .
91.2

Now consider O=C1CCCN1c1ccc(CN2CCC(O)(c3ccccc3)C2)cc1 (centres unmarked) .
98.4

Now consider COc1ccc(NC2=NC(=O)CC(C(=O)Nc3ccc(C)c(C)c3)N2)cc1 (centres unmarked) .
104

Now consider CC(C)(C)c1ccc(-c2ccc3ccc(N)nc3n2)cc1 .
79.3

Now consider O=C(O)CCN1CCN(S(=O)(=O)c2ccc3ccccc3c2)CC1 .
88.4

Now consider Cc1ccc(OCC(=O)Nc2ccc3c(c2)nc2n3CCOC2)cc1 .
102

Now consider C(=N\c1cccc2c(/N=C/c3c[nH]c4ccccc34)cccc12)/c1c[nH]c2ccccc12 .
95.8

Now consider Cc1csc(C(=O)N2CCCC(c3cc(O)cc(C)n3)C2)c1 (centres unmarked) .
89.5

Now consider COc1ccc(-c2nc(NC(=O)Cc3ccc(N(C)C)cc3)cnc2-c2ccc(F)cc2)cn1 .
97.9

Now consider Cc1ccc(S(=O)(=O)NCCc2cn3ccc(C)cc3n2)cc1 .
103

Now consider CCC(CO)Nc1nccnc1-c1ccsc1 (centres unmarked) .
107

Now consider COCc1cccc(Nc2ncnc3c2cnn3CCO)c1 .
93.2

Now consider COc1ccc(C(NC(=O)CC2CCN(c3nc(C)cc(C)n3)CC2)C2CC2)cc1 (centres unmarked) .
93.4
